settings: in n-butyl acetate, 303.15 K
RECORDED ENDPOINT: solubility (mole fraction)
Please respond with just the number, no unit label.

**Query** Fill in the blank: the reported solubility (mole fraction) of O=C1CCCC(=O)O1 is ____.
**Result** 0.451

---

conditions: in 1,2-dichloroethane, 283.15 K
RECORDED ENDPOINT: solubility (mole fraction)
Please respond with just the number, no unit label.

**Query** Fill in the blank: the reported solubility (mole fraction) of O=C1CCCC(=O)O1 is ____.
**Result** 0.555

---

details: in methyl acetate, 283.15 K
RECORDED ENDPOINT: solubility (mole fraction)
Please respond with just the number, no unit label.

**Query** Fill in the blank: the reported solubility (mole fraction) of O=C1CCCC(=O)O1 is ____.
**Result** 0.384

Recorded values, source BigSolDB 2.1.
